Ref: patent US5175159A

target: oxytocin receptor (Rattus norvegicus, UniProt P70536); construct: crude membrane preparation of rat uterus as the source of oxytocin receptors; from tissue; host or cells: rat uterus, crude membrane preparation; experiment: [^3H]Oxytocin Binding Assay (crude membrane preparation of rat uterus); settings: read-out: [^3 H]OT(uterus) IC50; inhibition of [^3H]oxytocin binding, rat uterus membranes
endpoint_label: pIC50
pIC50 here is simply -log10 of the concentration when that concentration is written in mol/L.

input: Fill in: pIC50 of CN1C(=O)C(NS(=O)(=O)CC23CCC(CC2O)C3(C)C)N=C(c2ccccc2)c2ccccc21 (single isomer, unassigned) [Example 16B] is ___
output: 6.00

###

Molecular target: oxytocin receptor (Rattus norvegicus, UniProt P70536)
Construct: crude membrane preparation of rat uterus as the source of oxytocin receptors; from tissue; host or cells: rat uterus, crude membrane preparation
Sequence (P70536 1-388): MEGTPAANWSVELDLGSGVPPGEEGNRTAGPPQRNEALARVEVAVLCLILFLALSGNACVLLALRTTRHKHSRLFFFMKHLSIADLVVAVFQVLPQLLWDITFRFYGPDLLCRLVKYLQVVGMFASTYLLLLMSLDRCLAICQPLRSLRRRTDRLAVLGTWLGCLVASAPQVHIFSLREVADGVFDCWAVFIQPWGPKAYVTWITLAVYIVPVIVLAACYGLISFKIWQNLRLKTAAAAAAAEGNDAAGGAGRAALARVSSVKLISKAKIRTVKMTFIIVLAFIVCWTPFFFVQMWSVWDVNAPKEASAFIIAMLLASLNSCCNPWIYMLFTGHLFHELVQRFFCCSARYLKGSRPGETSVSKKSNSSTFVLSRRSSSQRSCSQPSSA
Assay: [^3H]Oxytocin Binding Assay (crude membrane preparation of rat uterus)
Settings: read-out: % inhibition @ μM conc. (10 μM), [^3H]oxytocin binding, rat uterus membranes; @ 10 μM
endpoint_label: inhibition at 10 µM
Please state the number and follow it with the unit.

| compound | result |
| --- | --- |
| CN1C(=O)[C@@H](NC(=O)CC2C(=O)C3(C)CCC2C3(C)C)N=C(c2ccccc2)c2ccccc21 (single isomer, unassigned) | 39% |
| CN1C(=O)[C@H](NC(=O)CC2C(=O)C3(C)CCC2C3(C)C)N=C(c2ccccc2)c2ccccc21 (single isomer, unassigned) | 82% |
| CN1C(=O)[C@@H](NC(=O)CC2C3CCC(C)(C2O)C3(C)C)N=C(c2ccccc2)c2ccccc21 (single isomer, unassigned) [Example 22A] | 50% |
| CN1C(=O)[C@H](NC(=O)C2C(=O)C3(C)CCC2C3(C)C)N=C(c2ccccc2)c2ccccc21 (some centres unmarked) | 85% |
| CCOC(=O)[C@@H](NC(=O)NC1N=C(c2ccccc2)c2ccccc2N(C)C1=O)c1ccccc1 (single isomer, unassigned) | 46% |
| CN1C(=O)[C@H](NS(=O)(=O)C[C@]23CC[C@H](CC2=O)C3(C)C)N=C(c2ccccc2)c2ccccc21 | 80% |

input: Fill in: inhibition at 10 µM of "CN1C(=O)[C@@H](NS(=O)(=O)C[C@]23CC[C@H](CC2=O)C3(C)C)N=C(c2ccccc2)c2ccccc21" is ___
output: 15%

input: Fill in: inhibition at 10 µM of "CN1C(=O)[C@@H](NS(=O)(=O)C[C@@]23CC[C@@H](CC2=O)C3(C)C)N=C(c2ccccc2)c2ccccc21" is ___
output: 52%
